System: Vero E6 infected with SARS-CoV-2
procedureSummary: inhibition of SARS-CoV-2 cytopathic effect; higher = more antiviral protection, active = above 15
experimentalContext: 10000 nM; 48 h
measuredEndpoint: inhibition of SARS-CoV-2 cytopathic effect (%)
Give a bare numeral; the unit % is implied.

compound	unitDescriptor	numericReadout
Nc1ncnc(Nc2ccc(Cl)cc2)n1	%	-2.14
CCCCOc1ccc(CC(=O)NO)cc1	%	0.42
NCC(=O)CCC(=O)O	%	0.28

Q. inhibition of SARS-CoV-2 cytopathic effect lookup needed for `O=C(Cc1ccccc1)Nc1nc2ccc(Cl)cc2c2nc(-c3ccco3)nn12` , thanks.
A. 4.22

Q. Need inhibition of SARS-CoV-2 cytopathic effect of NCCCS(=O)(=O)O [tramiprosate] , thanks.
A. 2.51

Q. Which inhibition of SARS-CoV-2 cytopathic effect reading was recorded for the compound `c1ccc(-c2n[nH]cc2-c2ccnc3ccccc23)nc1` ?
A. -1.69

Q. I would be grateful if you could share the reported inhibition of SARS-CoV-2 cytopathic effect for `CC(=O)NC[C@H]1CN(c2ccc(N3CCOCC3)c(F)c2)C(=O)O1` .
A. 3.13
